TARGET_OR_SYSTEM: T1, human CD19 (human, UniProt P15391 20-556)
T1 construct: also called B-cell surface antigen B4; B-cell antigen CD19
T1 sequence: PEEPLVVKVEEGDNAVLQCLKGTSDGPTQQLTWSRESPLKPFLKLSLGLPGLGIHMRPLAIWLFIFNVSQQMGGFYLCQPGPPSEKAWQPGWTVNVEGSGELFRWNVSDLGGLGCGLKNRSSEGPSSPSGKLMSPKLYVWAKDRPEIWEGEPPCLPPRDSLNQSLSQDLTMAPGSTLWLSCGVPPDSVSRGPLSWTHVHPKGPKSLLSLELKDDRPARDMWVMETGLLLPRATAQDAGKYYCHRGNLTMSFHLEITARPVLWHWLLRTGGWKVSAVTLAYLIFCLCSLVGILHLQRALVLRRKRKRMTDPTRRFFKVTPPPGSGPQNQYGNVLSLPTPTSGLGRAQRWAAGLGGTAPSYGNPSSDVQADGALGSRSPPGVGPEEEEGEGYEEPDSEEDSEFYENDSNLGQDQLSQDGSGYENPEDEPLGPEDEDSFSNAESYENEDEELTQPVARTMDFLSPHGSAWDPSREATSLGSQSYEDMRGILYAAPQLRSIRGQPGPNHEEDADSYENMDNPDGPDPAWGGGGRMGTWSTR
MEASUREMENT_DESCRIPTION: DELFIA competition on Raji cells: unlabeled antibody competes with Eu-labeled anti-CD19 for surface CD19 [upper panel]
QUANTITY_KIND: binding result

INSERT INTO measurements (binder, quantity_kind, measured) VALUES
  ('H3L0 (antibody, V domains shown, also called 4G7 H3L0) VH: EVQLVESGGGLVQPGRSLRLSCAASGYTFTSYVMHWVRQMPGKGLEWMGYINPYNDGTKYNEKFQGRVTITSDKSTSTAYMELSRLRSDDTAVYYCARGTYYYGSRVFDYWGQGTLVTVSS VL: DIVMTQAAPSIPVTPGESVSISCRSSKSLLNSNGNTYLYWFLQRPGQSPQLLIYRMSNLASGVPDRFSGSGSGTAFTLRISRVEAEDVGVYYCMQHLEYPFTFGAGTKLELK', 'binding result', 'binds');
